- assay.target: HaloTag-ING2 PHD (mouse Ing2 200-280)
- test.description: peptide microarray binding signal (635 nm), min-max normalized on array (fraction of array maximum); higher = stronger binding
- condition.notes: peptide region: Unmod H2A variant; binder concentration: 100 nM
Use T when the recorded peptide microarray binding signal is no lower than 0.02; use F when it is lower.

Q. # check: peptide microarray binding signal of LQLAIRNDEELNK [Unmod H2A variant L Q L A I R N D E E L N K] is greater than or equal to 0.02
A. T

Q. Follow-up item: GAGAPVYLAAVLE [Unmod H2A variant G A G A P V Y L A A V L E]
A. F

Q. Then GNAARDNKKTRII [Unmod H2A variant G N A A R D N K K T R I I] ?
A. F

Q. Now try GVLPNIQAVLLPK [Unmod H2A variant G V L P N I Q A V L L P K] .
A. T

Shifting focus to the binder that follows.
Q. Assess whether reported peptide microarray binding signal for IQAVLLPKKTESH [Unmod H2A variant I Q A V L L P K K T E S H] sits at 0.02 or higher.
A. T
